Here, each record is paired with measured kon data.
# TARGET_UNDER_TEST: T1, biotinylated NbALFA (NanoTag) (biotinylated (site not stated))
# T1 construct: Bought from NanoTag and captured on the SPR chip through biotin; also called NbALFA-nanobody; Nanobody
# EXPERIMENT_SUMMARY: SPR, Biacore T200, biotinylated NbALFA captured on Biotin CAPture chip, peptide as analyte, multi-cycle kinetics, 1:1 model, 25 C
Bridge positions count the residues as written; N and C are the ends. Square brackets hold non-standard residues; d marks the D form. Ends that are not written are not given here.

| BINDER | MEASUREMENT_UNIT | kon |
| --- | --- | --- |
| Ac-PSRLEEELRKRLTE-NH2 (lactam 6-10; SMILES CC(=O)N1CCC[C@H]1C(=O)N[C@@H](CO)C(=O)N[C@@H](CCCNC(=N)N)C(=O)N[C@@H](CC(C)C)C(=O)N[C@@H](CCC(=O)O)C(=O)N[C@H]1CCC(=O)NCCCC[C@@H](C(=O)N[C@@H](CCCNC(=N)N)C(=O)N[C@@H](CC(C)C)C(=O)N[C@H](C(=O)N[C@@H](CCC(=O)O)C(N)=O)[C@@H](C)O)NC(=O)[C@H](CCCNC(=N)N)NC(=O)[C@H](CC(C)C)NC(=O)[C@H](CCC(=O)O)NC1=O, Cyclic ALFA tag; also called SD15341) [Ac-Pro-Ser-Arg-Leu-Glu-(cyclo6)Glu-Glu-Leu-Arg-(cyclo10)Lys-Arg-Leu-Thr-Glu-NH2] | M⁻¹ s⁻¹ | 1.86e+07 |
| Ac-PSRLEEELKRRLTE-NH2 (lactam 5-9; SMILES CC(=O)N1CCC[C@H]1C(=O)N[C@@H](CO)C(=O)N[C@@H](CCCNC(=N)N)C(=O)N[C@@H](CC(C)C)C(=O)N[C@H]1CCC(=O)NCCCC[C@@H](C(=O)N[C@@H](CCCNC(=N)N)C(=O)N[C@@H](CCCNC(=N)N)C(=O)N[C@@H](CC(C)C)C(=O)N[C@H](C(=O)N[C@@H](CCC(=O)O)C(N)=O)[C@@H](C)O)NC(=O)[C@H](CC(C)C)NC(=O)[C@H](CCC(=O)O)NC(=O)[C@H](CCC(=O)O)NC1=O, Cyclic ALFA tag; also called SD15806) [Ac-Pro-Ser-Arg-Leu-(cyclo5)Glu-Glu-Glu-Leu-(cyclo9)Lys-Arg-Arg-Leu-Thr-Glu-NH2] | M⁻¹ s⁻¹ | 3.44e+09 |
| Ac-SRLEEELKRRLTE-NH2 (lactam 5-8; SMILES CC(=O)N[C@@H](CO)C(=O)N[C@@H](CCCNC(=N)N)C(=O)N[C@@H](CC(C)C)C(=O)N[C@@H](CCC(=O)O)C(=O)N[C@H]1CCC(=O)NCCCC[C@@H](C(=O)N[C@@H](CCCNC(=N)N)C(=O)N[C@@H](CCCNC(=N)N)C(=O)N[C@@H](CC(C)C)C(=O)N[C@H](C(=O)N[C@@H](CCC(=O)O)C(N)=O)[C@@H](C)O)NC(=O)[C@H](CC(C)C)NC(=O)[C@H](CCC(=O)O)NC1=O, Cyclic ALFA tag; also called SD15192) [Ac-Ser-Arg-Leu-Glu-(cyclo5)Glu-Glu-Leu-(cyclo8)Lys-Arg-Arg-Leu-Thr-Glu-NH2] | M⁻¹ s⁻¹ | 1.05e+07 |
| Ac-SRLEDELRKRLTE-NH2 (lactam 5-9; SMILES CC(=O)N[C@@H](CO)C(=O)N[C@@H](CCCNC(=N)N)C(=O)N[C@@H](CC(C)C)C(=O)N[C@@H](CCC(=O)O)C(=O)N[C@H]1CC(=O)NCCCC[C@@H](C(=O)N[C@@H](CCCNC(=N)N)C(=O)N[C@@H](CC(C)C)C(=O)N[C@H](C(=O)N[C@@H](CCC(=O)O)C(N)=O)[C@@H](C)O)NC(=O)[C@H](CCCNC(=N)N)NC(=O)[C@H](CC(C)C)NC(=O)[C@H](CCC(=O)O)NC1=O, Cyclic ALFA tag; also called SD15196) [Ac-Ser-Arg-Leu-Glu-(cyclo5)Asp-Glu-Leu-Arg-(cyclo9)Lys-Arg-Leu-Thr-Glu-NH2] | M⁻¹ s⁻¹ | 1.81e+07 |
| Ac-SRLEEELRKRLTE-NH2 (lactam 9-13; SMILES CC(=O)N[C@@H](CO)C(=O)N[C@@H](CCCNC(=N)N)C(=O)N[C@@H](CC(C)C)C(=O)N[C@@H](CCC(=O)O)C(=O)N[C@@H](CCC(=O)O)C(=O)N[C@@H](CCC(=O)O)C(=O)N[C@@H](CC(C)C)C(=O)N[C@@H](CCCNC(=N)N)C(=O)N[C@H]1CCCCNC(=O)CC[C@@H](C(N)=O)NC(=O)[C@H]([C@@H](C)O)NC(=O)[C@H](CC(C)C)NC(=O)[C@H](CCCNC(=N)N)NC1=O, Cyclic ALFA tag; also called SD15193) [Ac-Ser-Arg-Leu-Glu-Glu-Glu-Leu-Arg-(cyclo9)Lys-Arg-Leu-Thr-(cyclo13)Glu-NH2] | M⁻¹ s⁻¹ | 1.95e+07 |
| Ac-PSRLEKELRERLTE-NH2 (lactam 6-10; SMILES CC(=O)N1CCC[C@H]1C(=O)N[C@@H](CO)C(=O)N[C@@H](CCCNC(=N)N)C(=O)N[C@@H](CC(C)C)C(=O)N[C@@H](CCC(=O)O)C(=O)N[C@H]1CCCCNC(=O)CC[C@@H](C(=O)N[C@@H](CCCNC(=N)N)C(=O)N[C@@H](CC(C)C)C(=O)N[C@H](C(=O)N[C@@H](CCC(=O)O)C(N)=O)[C@@H](C)O)NC(=O)[C@H](CCCNC(=N)N)NC(=O)[C@H](CC(C)C)NC(=O)[C@H](CCC(=O)O)NC1=O, Cyclic ALFA tag; also called SD15805) [Ac-Pro-Ser-Arg-Leu-Glu-(cyclo6)Lys-Glu-Leu-Arg-(cyclo10)Glu-Arg-Leu-Thr-Glu-NH2] | M⁻¹ s⁻¹ | 9.33e+06 |
| Ac-PSRLEEELR[dK]RLTE-NH2 (lactam 6-10; SMILES CC(=O)N1CCC[C@H]1C(=O)N[C@@H](CO)C(=O)N[C@@H](CCCNC(=N)N)C(=O)N[C@@H](CC(C)C)C(=O)N[C@@H](CCC(=O)O)C(=O)N[C@H]1CCC(=O)NCCCC[C@H](C(=O)N[C@@H](CCCNC(=N)N)C(=O)N[C@@H](CC(C)C)C(=O)N[C@H](C(=O)N[C@@H](CCC(=O)O)C(N)=O)[C@@H](C)O)NC(=O)[C@H](CCCNC(=N)N)NC(=O)[C@H](CC(C)C)NC(=O)[C@H](CCC(=O)O)NC1=O, Cyclic ALFA tag; also called SD15808) [Ac-Pro-Ser-Arg-Leu-Glu-(cyclo6)Glu-Glu-Leu-Arg-(cyclo10)dLys-Arg-Leu-Thr-Glu-NH2] | M⁻¹ s⁻¹ | 1.35e+07 |
| SRLEEELRKRLTE (lactam 5-9; not fully specified (N-terminus, C-terminus), also called SD15194) [Ac-Ser-Arg-Leu-Glu-(cyclo5)Glu-Glu-Leu-Arg-(cyclo9)Lys-Arg-Leu-Thr-Glu-NH2] | M⁻¹ s⁻¹ | 1.78e+07 |
| Ac-SRLEEELRRRLTE-NH2 (Linear ALFA tag; also called SD15197) [Ac-Ser-Arg-Leu-Glu-Glu-Glu-Leu-Arg-Arg-Arg-Leu-Thr-Glu-NH2] | M⁻¹ s⁻¹ | 5.05e+07 |
